Tested on: SF-268 CNS
Test: NCI-60 one-dose screen, 48 h
Settings: 10 µM unless noted
Compounds without any hit were thinned out: in the full panel of roughly 83,000, 20% have a hit. Activity calls are given as the source filed them. How the source made its calls: active means growth percent below 10; inactive means the rest.
Valid outcomes are listed here; reply with one: active, inactive

Answered examples (8):
O=C(O)c1ccc(N=CC(=O)c2ccc(-c3ccccc3)cc2)cc1    inactive
Clc1ccc2nc3nc4ccc[nH]c4cc3c2c1    inactive
COc1ccc(CN2c3ccccc3Oc3ccccc32)cc1O    inactive
Cc1ccc(OC(=O)c2ccc(Cl)cc2)cc1    inactive
CCOC(=O)c1c(C)oc2ncnc(N3CCN(C(=O)COc4ccc(SC)cc4)CC3)c12    inactive
Cn1cc(C(=O)c2nc(-c3c[nH]c4ccc(Br)cc34)no2)c2cc(F)ccc21    inactive
Nc1nc2ncc(CCNc3ccc(C(=O)O)cc3)nc2c(=O)[nH]1    inactive
Cc1ccc(O)c(N2C(=NCc3ccco3)NS(=O)(=O)c3cnccc32)c1    inactive

Entry `O=c1oc2c(C(F)(F)F)cccc2cc1-c1csc(Nc2ccc(OCCF)cc2)n1` : call = ?
inactive

Name the outcome recorded for `CCCCC[C@H]1C/C=C2/C(=O)C=C[C@@H]2C/C=C\CCCC(=O)O1` in the assay.
active

# fetch the recorded call for `CCCOc1ccc2nc(NC(=O)OC)[nH]c2c1` here
inactive

Hi team, can someone confirm the assay call for `CN1CCN(c2nc(NCCCNc3ccnc4cc(Cl)ccc34)c3ccccc3n2)CC1` ?
inactive

Dear colleague, could you share the recorded outcome for `CS(=O)(=O)c1ccc(-n2nc(-c3ccc(Br)cc3)c3ccccc3c2=O)cc1` when you have a moment?
inactive

How was `CCN1CCN(c2nc(NCCCNc3ccnc4cc(Cl)ccc34)c3ccccc3n2)CC1` classified in this test?
inactive

Could you check what this test reported for `COC(=O)c1cccc(NC(=O)c2ccc(-c3cccc(N)c3)o2)c1` ?
inactive

Which outcome did this test record for the molecule `Cn1ccnc1C(=O)/C=C/c1ccc(CC(=O)Nc2ccccc2)cc1` ?
inactive

// outcome(item) with item = `Cn1cc(C(=O)c2nc(-c3c[nH]c4ccc(F)cc34)no2)c2cc(F)ccc21`
inactive
